System: NCI-H226 lung
Test: NCI tumour cell line growth inhibition, 48 h
Measurement Type: TGI (µM)

compound="Cc1ccc(NC(=O)CCC(=O)C2CC(=O)CC/C2=N\\NC(=O)c2cc3ccccc3cc2O)cc1C (centres undefined)" measurement_type=TGI value_comparator== measurement=97.2
compound="CC(=O)NC1C(OCc2ccccc2)OC(COC(=O)CCCCCCCCCCNC(=O)c2cccc3c(=O)c4ccccc4[nH]c23)C(O)C1OC(C)C(=O)NC(C)C(=O)NC(CCC(N)=O)C(N)=O (centres undefined)" measurement_type=TGI value_comparator=> measurement=100
compound=CCN(CC)CCC(=O)Nc1ccc(Cn2nnc3c2C(=O)c2nnn(Cc4ccc(NC(=O)CCN(CC)CC)cc4)c2C3=O)cc1 measurement_type=TGI value_comparator== measurement=3.46
compound=COc1cc2ccn3c4cc(OC)c(OC)cc4cc3c2cc1OC measurement_type=TGI value_comparator=> measurement=100

* * *

System: MALME-3M melanoma
Test: NCI tumour cell line growth inhibition, 48 h
Measurement Type: TGI

compound=c1ccc2c(c1)nc(NCCN1CCNCC1)c1c3ccccc3[nH]c21 measurement="3.82 µM"
compound=O=C(c1ccccc1F)c1c(NCc2ccccc2)c(=O)c1=O measurement="> 100 µM"
compound=CC(CC(=O)O)(CC(=O)O)C(=O)O measurement="> 100 µM"
compound="NC(Cc1nn[nH]n1)C(=O)O (stereo not given)" measurement="> 100 µM"
compound=c1ccc2c(c1)CCCc1cc3ccccc3nc1-2 measurement="> 100 µM"
compound="COc1cc2c3c(c1OC)-c1ccccc1C(C(OC(C)=O)c1ccccc1)C3N(C)CC2 (stereo not given)" measurement="> 100 µM"
compound=CC(C)c1ccc(/C=C(\NC(=O)c2ccccc2)c2nc3ccccc3[nH]2)cc1 measurement="> 100 µM"
compound="Cc1ccc(S(=O)(=O)C(C#N)c2nc3ccccc3nc2-n2cccn2)cc1 (stereo not given)" measurement="> 100 µM"
compound=O=C(C[C@@H]1NCCC[C@H]1O)Cn1cnc2cc(Br)c(Cl)cc2c1=O measurement="0.144 µM"
compound=O=C1C/C(=C\O)C(=O)c2ccccc2N1 measurement="> 100 µM"
compound=COc1ccccc1Cn1cc2c(c1)-c1oncc1CC2 measurement="> 100 µM"
compound="CC1=NN(c2ccc(C)cc2)C2(C1)SCC(=O)N2c1nc2ccccc2s1 (stereo not given)" measurement="> 100 µM"
compound="CC1OC(=O)N(CCCC=C2SCCCS2)C1=O (stereo not given)" measurement="> 100 µM"
compound="CCOC(=O)C1C(c2cc(OC)c(O)c(OC)c2)c2cc3c(cc2OC1(C)O)OCO3 (stereo not given)" measurement="> 100 µM"
compound=CCOP(=O)(OCC)/C(C#N)=C\c1cccc2ccccc12 measurement="> 100 µM"
compound=COc1cc[nH]c1/C=C1\C(=O)Nc2ccc(F)c(C#CC3(O)CCOCC3)c21 measurement="5.81 µM"
compound="CCOC(=O)/C=C1\\Nc2ccccc2C(c2ccccc2)=NC1OC(C)=O (stereo not given)" measurement="> 100 µM"
compound="CC1(CC(=O)O)OC2CCCCCC2O1 (stereo not given) (tested in a mixture with another compound)" measurement="> 100 µM"
compound="COC(=O)Cc1c(C2=Nc3ccccc3C2(O)CC(=O)OC)[nH]c2ccccc12 (stereo not given)" measurement="> 100 µM"
compound=O=C(Oc1c(I)ccccc1=O)c1ccc([N+](=O)[O-])cc1 measurement="30.7 µM"

* * *

Test system: OVCAR-4 ovarian
Assay: NCI tumour cell line growth inhibition, 48 h
Measurement Type: TGI (µM)

compound="CCCCCCCCCCCCOC1C(COCCN2CCCC2)OC2OC(C)(C)OC21 (stereo not given)" value_comparator== measurement=7.6
compound=O=c1c(Cc2ccc(Cl)cc2)nnc2sc(-c3ccc([N+](=O)[O-])cc3)nn12 value_comparator=> measurement=100
compound=CC[C@]12C=CCN3CC[C@]4(C(=C(C(=O)OC)C1)Nc1cc(O)ccc14)[C@@H]32 value_comparator== measurement=76.4
compound=CCOC(=O)c1c2c(n(C)c1-c1ccccc1)C(=O)C(C)=CC2=O value_comparator== measurement=20.3
compound="O=C1OCC(C(=O)c2cccc(O)c2)C1=O (stereo not given)" value_comparator=> measurement=100
compound=CC1(C)CC(=O)C(/C=N/c2nc(-c3ccc(Br)cc3)cs2)=C(O)C1 value_comparator=> measurement=100
compound=O=C(CCCCCCCCCCc1ccccc1)c1c(O)cccc1O value_comparator== measurement=57.5
compound=CNc1ccc2nc(-c3ccc(OC(=O)N(C)C)cc3)cn2c1 value_comparator== measurement=31.6
compound="Cc1cnc(Cl)nc1C(C#N)c1nc2ccccc2n1C (stereo not given)" value_comparator=> measurement=100
compound=CC(=O)Oc1ccc2cc(Oc3ccc(Cl)cc3)c(=O)oc2c1 value_comparator=> measurement=100

* * *

Test system: KM12 colon
Test: NCI tumour cell line growth inhibition, 48 h
Measurement Type: GI50

compound=COc1cccc(-c2nn(-c3ccccc3)cc2-c2ccnc(NCCNC(=O)Nc3ccc(Cl)c(Cl)c3)c2)c1 subject_of_test="KM12 colon" measurement="2270 nM"
compound=COc1ccccc1C(=O)c1cnc(NC2CCN(S(C)(=O)=O)CC2)nc1N subject_of_test="KM12 colon" measurement="5740 nM"
compound=CC[C@@]1(OC(=O)CN)C(=O)OCc2c1cc1n(c2=O)Cc2cc3cc(N)ccc3nc2-1 subject_of_test="KM12 colon" measurement="120 nM"
compound=COC(=O)[C@H](Cc1ccccc1)NC(=O)c1csc([C@@H](C[C@H](C(C)C)N(C)C(=O)[C@@H](NC(=O)[C@H]2CCCCN2C)C2CC2)OC(C)=O)n1 subject_of_test="KM12 colon" measurement="84.4 nM"
compound="N#CC1c2ccccc2-c2ccccc2N1C(=O)c1ccccc1 (stereo unspecified)" subject_of_test="KM12 colon" measurement="1160 nM"
compound=CCOC(=O)c1[nH]c2c(c1C)-c1[nH]c(=O)c(S(=O)(=O)c3ccccc3)cc1SC2 subject_of_test="KM12 colon" measurement="38500 nM"
compound=CCN(CC)CCOc1ccc(/C=C2\C[C@H]3[C@@H]4CC=C5C[C@@H](OC(C)=O)CC[C@]5(C)[C@H]4CC[C@]3(C)[C@H]2OC(C)=O)cc1OC subject_of_test="KM12 colon" measurement="9650 nM"
compound=O=C1c2c(O)cccc2C(C(=O)CCCCC(=O)C2c3cccc(O)c3C(=O)c3c(O)cccc32)c2cccc(O)c21 subject_of_test="KM12 colon" measurement="884 nM"
compound="Cc1nn(-c2ccccc2)c2c1C1C(=C(c3ccc(Cl)cc3)N2)C(=O)Nc2ccccc21 (stereo unspecified)" subject_of_test="KM12 colon" measurement="3600 nM"
compound=O=C1C=C(Nc2cccc(Br)c2)c2ccccc2C1=O subject_of_test="KM12 colon" measurement="4130 nM"
compound="COc1cc(C2C3=C(COC3=O)N(CCO)c3cc4c(cc32)CCC4)cc(OC)c1O (stereo unspecified)" subject_of_test="KM12 colon" measurement="121 nM"

* * *

Entries and their TGI values follow.
Test system: SNB-19 CNS
Experiment: NCI tumour cell line growth inhibition, 48 h
Measurement Type: TGI

compound=O=C1c2cccnc2C(=O)c2c1c(C(=O)OCCCN1CCOCC1)c1ccccn21 measurement="4.13 µM"
compound="CN(C)c1ccc(/C=C(\\NC(=O)c2ccccc2)C(=O)Nc2ccccc2C(=O)NN2C(=O)CSC2c2ccc(N(C)C)cc2)cc1 (centres undefined)" measurement="> 100 µM"
compound=CC1=C(C#N)C(N)=C2C(C)=C(C#N)C(N)=C12 measurement="> 100 µM"
compound=O=C1CCC2(CCC(=O)NC2=O)C(=O)N1 measurement="> 100 µM"
compound=O=c1oc2ccccc2cc1-c1nc2ccc([N+](=O)[O-])cc2o1 measurement="68.5 µM"
compound=CN(C)c1ccc(-c2nc(-c3cc4c(ccc5ccccc54)oc3=O)cs2)cc1 measurement="> 100 µM"
compound=COc1cc(C(=O)Nc2nnc(S(N)(=O)=O)s2)cc(OC)c1OC measurement="> 100 µM"
compound=COC(=O)[C@H](Cc1ccccc1)NC(=O)c1csc([C@@H](C[C@H](C(C)C)N(C)C(=O)[C@@H](NC(=O)[C@H]2CCCCN2C)C2CC2)OC(C)=O)n1 measurement="> 25 µM"
compound=c1ccc2c(c1)nc(NCCN1CCNCC1)c1c3ccccc3[nH]c21 measurement="3.15 µM"

* * *

Tested on: BT-549 breast
Assay: NCI tumour cell line growth inhibition, 48 h
Entries and their TGI values follow.
Measurement Type: TGI

compound="CCCCCCCCCCCCC(=O)NCC(=O)NC(Cc1ccccc1)C(=O)Oc1ccc([N+](=O)[O-])cc1 (stereo not given)" measurement_type=TGI measurement="> 100 µM"
compound="COc1cc(C2C(Cl)C(=O)N2c2ccc(Br)cc2)cc(I)c1O (stereo not given)" measurement_type=TGI measurement="> 100 µM"
compound=Cc1cs/c(=N\C(P(=O)(O)O)P(=O)(O)O)n1C measurement_type=TGI measurement="> 100 µM"
compound=Cc1ccc(-c2cc(-c3ccc(Cl)cc3)nc(/N=C3\C(=O)N(CN4CCCCC4)c4ccc(Cl)cc43)n2)cc1 measurement_type=TGI measurement="> 100 µM"
compound=CCN(CC)CCC(=O)Nc1ccc(Cn2nnc3c2C(=O)c2nnn(Cc4ccc(NC(=O)CCN(CC)CC)cc4)c2C3=O)cc1 measurement_type=TGI measurement="3.06 µM"
compound="CCOC(=O)CCC(NC(=O)OCc1ccccc1)C(=O)NNC(=O)OC(C)(C)C (stereo not given)" measurement_type=TGI measurement="> 100 µM"
compound=COc1ccc(/C=N/Nc2[nH]c(=S)nc3[nH]ncc23)cc1 measurement_type=TGI measurement="> 100 µM"
compound=O=C1c2ccccc2S(=O)(=O)c2ccccc21 measurement_type=TGI measurement="> 100 µM"
compound=COc1ccc(Cn2nc(OCc3ccccn3)c3cc([N+](=O)[O-])ccc32)cc1 measurement_type=TGI measurement="> 100 µM"
compound=O=C1C/C(=C\O)C(=O)c2ccccc2N1 measurement_type=TGI measurement="> 100 µM"

The measurements presented in this section are drawn from PubChem BioAssay (NCI).
